Reference for the values: ChEMBL document CHEMBL1138982

# Tested on: Gerbil, jird
# method: Inhibition of GR-73632 induced foot tapping in gerbil, po
# Assay type: functional
# experimentalParameters: Meriones, read-out: ID50 (the source's name)
assayMetric: ED50 (mg/kg)
Value expressed in mg/kg; do not type the unit.

Consider the compound `Cc1ccccc1-c1cc(N2CCN(C)CC2)ncc1N(C)C(=O)C(C)(C)c1cc(C(F)(F)F)cc(C(F)(F)F)c1` . State its measured ED50. 0.5

Identify measured ED50 associated with `Cc1ccccc1-c1cc(N2CCOCC2)ncc1N(C)C(=O)C(C)(C)c1cc(C(F)(F)F)cc(C(F)(F)F)c1` 0.2

Determine its reported ED50: `Cc1ccccc1-c1cc(N2CCS(=O)(=O)CC2)ncc1N(C)C(=O)C(C)(C)c1cc(C(F)(F)F)cc(C(F)(F)F)c1` 0.8

Identify measured ED50 associated with `Cc1ccccc1-c1cc(N2CCC(O)CC2)ncc1N(C)C(=O)C(C)(C)c1cc(C(F)(F)F)cc(C(F)(F)F)c1` 0.5
